Numbers sourced from the supplement of paper PMC10567573.

Task for the reader: assign each of the following variants its reported protein stability index.
B1: TRIB1 (parent)
chain: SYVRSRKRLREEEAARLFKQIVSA

- Variants of: B1
- Assay comment: protein stability index of a GFP-peptide fusion (GPS, HEK-293T) (PSI 1-6); higher = more stable;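 further: lentivirally expressed fusions sorted by FACS into six bins by GFP to DsRed ratio, PSI derived from sequencing read proportions per bin multiplied by bin number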
- Particulars: c terminus: a fixed tail appended
Answer field: number only, no words.

Prompt: Suppose we examine the variant SYVRSRKRLYEEEAARLFKQIVSA [R10Y] ; what protein stability index value has been reported?
Response: 1.95

Prompt: Also SYVRSRKRLREEEAARLFKQIVAA [S23A] ?
Response: 2.01

Prompt: Also QYVRSRKRLREEEAARLFKQIVSA [S1Q] ?
Response: 1.58

Prompt: Also SYVRSRKRLREEAAARLFKQIVSA [E13A] ?
Response: 1.27

Prompt: Also SYVRSRKRLREEEAARLFKQICSA [V22C] ?
Response: 2.13

Prompt: Also SYVRSRKRLREEEHARLFKQIVSA [A14H] ?
Response: 2.26

Prompt: Also SYVRSGKRLREEEAARLFKQIVSA [R6G] ?
Response: 1.72

Prompt: Also SYVRSRKRLREEEAARLFKQIVSL [A24L] ?
Response: 1.65

Prompt: Also SYVRSRKRLIEEEAARLFKQIVSA [R10I] ?
Response: 1.83

Prompt: Also SYVRSRKRLPEEEAARLFKQIVSA [R10P] ?
Response: 2.28

Prompt: Also SYVRSRKRVREEEAARLFKQIVSA [L9V] ?
Response: 1.75

Prompt: Also SYVRSRKRLDEEEAARLFKQIVSA [R10D] ?
Response: 2.28

Prompt: Also SYVSSRKRLREEEAARLFKQIVSA [R4S] ?
Response: 1.87

Prompt: Also SYVRSRKRLREEEAANLFKQIVSA [R16N] ?
Response: 2.58

Prompt: Also YYVRSRKRLREEEAARLFKQIVSA [S1Y] ?
Response: 1.41

Prompt: Also SYVRSRKRLREEEAALLFKQIVSA [R16L] ?
Response: 1.93

Prompt: Also SYVRSRKRLREQEAARLFKQIVSA [E12Q] ?
Response: 1.98

Prompt: Also SYVRSTKRLREEEAARLFKQIVSA [R6T] ?
Response: 2.07

Prompt: Also SYVRSRKKLREEEAARLFKQIVSA [R8K] ?
Response: 2.49

Prompt: Also SYVRSRKRLREEEAARFFKQIVSA [L17F] ?
Response: 1.6

Prompt: Also VYVRSRKRLREEEAARLFKQIVSA [S1V] ?
Response: 1.65

Prompt: Also SYVRSRYRLREEEAARLFKQIVSA [K7Y] ?
Response: 1.93

Prompt: Also SYVRSRKRLREEEAARLFKWIVSA [Q20W] ?
Response: 1.46

Prompt: Also SSVRSRKRLREEEAARLFKQIVSA [Y2S] ?
Response: 1.9

Prompt: Also SYVRSRKFLREEEAARLFKQIVSA [R8F] ?
Response: 1.48

Prompt: Also SYVRSRKRLREEEAARLFKAIVSA [Q20A] ?
Response: 1.8

Prompt: Also SYVRSRKRLREETAARLFKQIVSA [E13T] ?
Response: 1.74

Prompt: Also SYVRSRKRLREEEQARLFKQIVSA [A14Q] ?
Response: 2.99

Prompt: Also SYVRSRKRLREEEAARKFKQIVSA [L17K] ?
Response: 2.61

Prompt: Also SYVRSRKRLREEEAAVLFKQIVSA [R16V] ?
Response: 2.53

Prompt: Also SYVRSRKRLREEEAARLFKQIVYA [S23Y] ?
Response: 1.73

Prompt: Also SYVHSRKRLREEEAARLFKQIVSA [R4H] ?
Response: 2.56

Prompt: Also SYVRSRKRLREEEAARLFKPIVSA [Q20P] ?
Response: 3.03

Prompt: Also SYVRSRKRLREEEAARLCKQIVSA [F18C] ?
Response: 3.31

Prompt: Also SYVRSRMRLREEEAARLFKQIVSA [K7M] ?
Response: 2.38

Prompt: Also SYVRSCKRLREEEAARLFKQIVSA [R6C] ?
Response: 1.85

Prompt: Also SYVRSRKRLMEEEAARLFKQIVSA [R10M] ?
Response: 1.35

Prompt: Also SYVRSRKRLREEEYARLFKQIVSA [A14Y] ?
Response: 2.18

Prompt: Also SYVDSRKRLREEEAARLFKQIVSA [R4D] ?
Response: 2.44

Prompt: Also SYVRSRKRLREEEAARLFKQINSA [V22N] ?
Response: 2.86

Prompt: Also SYVRSRKRLREEEAARLFKIIVSA [Q20I] ?
Response: 1.43

Prompt: Also SYVRSRKRLREEEAARLFKQIVEA [S23E] ?
Response: 2.56

Prompt: Also SYVRSRKRLREEEAKRLFKQIVSA [A15K] ?
Response: 1.96

Prompt: Also SYVRSRKDLREEEAARLFKQIVSA [R8D] ?
Response: 1.78

Prompt: Also SYVRSRKRLREEFAARLFKQIVSA [E13F] ?
Response: 2.37

Prompt: Also SYVRSRKRHREEEAARLFKQIVSA [L9H] ?
Response: 2.24
